# System: Saccharomyces cerevisiae;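 further: PSI is a weighted mean of sequencing reads over stability bins, variants kept only with over 10 reads, mCherry proximal and sfGFP distal, peptide attached via GGGS linker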
# assay_overview: protein stability index of tFT-peptide fusion (C-terminal peptide) (PSI (0-1 scale)); higher = more stable (slower turnover)
# condition: genetic background: wild type; temperature: 30 C

[
  {
    "chain": "LCCTLFFCYSYH",
    "target": "Saccharomyces cerevisiae",
    "protein stability index": 0.388
  },
  {
    "chain": "FCFVRGLLFLFF",
    "target": "Saccharomyces cerevisiae",
    "protein stability index": 0.36
  },
  {
    "chain": "FSFFLYFFLLLF",
    "target": "Saccharomyces cerevisiae",
    "protein stability index": 0.271
  },
  {
    "chain": "SFFSQAIPILAA",
    "target": "Saccharomyces cerevisiae",
    "protein stability index": 0.15
  },
  {
    "chain": "LQLGFCFVAQFI",
    "target": "Saccharomyces cerevisiae",
    "protein stability index": 0.476
  },
  {
    "chain": "VKVKMKIIIIIK",
    "target": "Saccharomyces cerevisiae",
    "protein stability index": 0.281
  },
  {
    "chain": "VFLLLSLSVFFE",
    "target": "Saccharomyces cerevisiae",
    "protein stability index": 0.128
  },
  {
    "chain": "WVVLVCGFVLLG",
    "target": "Saccharomyces cerevisiae",
    "protein stability index": 0.234
  },
  {
    "chain": "AFRFLAVCVGCG",
    "target": "Saccharomyces cerevisiae",
    "protein stability index": 0.205
  },
  {
    "chain": "APPPLFLIVLHL",
    "target": "Saccharomyces cerevisiae",
    "protein stability index": 0.3
  },
  {
    "chain": "RPPSLVFLFLLT",
    "target": "Saccharomyces cerevisiae",
    "protein stability index": 0.395
  },
  {
    "chain": "SVFWCFHVLFWS",
    "target": "Saccharomyces cerevisiae",
    "protein stability index": 0.345
  },
  {
    "chain": "RSFSKRSFMFLC",
    "target": "Saccharomyces cerevisiae",
    "protein stability index": 0.172
  },
  {
    "chain": "VGVSCVVCVCGV",
    "target": "Saccharomyces cerevisiae",
    "protein stability index": 0.295
  },
  {
    "chain": "CKKATILRIKSM",
    "target": "Saccharomyces cerevisiae",
    "protein stability index": 0.19
  },
  {
    "chain": "LGSCSLIYRKFS",
    "target": "Saccharomyces cerevisiae",
    "protein stability index": 0.0958
  },
  {
    "chain": "PWEYSSQLVLVI",
    "target": "Saccharomyces cerevisiae",
    "protein stability index": 0.177
  },
  {
    "chain": "LSPPLRHRLTPP",
    "target": "Saccharomyces cerevisiae",
    "protein stability index": 0.669
  },
  {
    "chain": "FLSRVVLVVLLV",
    "target": "Saccharomyces cerevisiae",
    "protein stability index": 0.215
  },
  {
    "chain": "PVLPPPLLLCPC",
    "target": "Saccharomyces cerevisiae",
    "protein stability index": 0.15
  },
  {
    "chain": "GVGHAWHYFCVC",
    "target": "Saccharomyces cerevisiae",
    "protein stability index": 0.247
  },
  {
    "chain": "FCSLLVLLFFGV",
    "target": "Saccharomyces cerevisiae",
    "protein stability index": 0.337
  },
  {
    "chain": "FVSHRRFSLFLY",
    "target": "Saccharomyces cerevisiae",
    "protein stability index": 0.143
  },
  {
    "chain": "RISGSIVVRKRS",
    "target": "Saccharomyces cerevisiae",
    "protein stability index": 0.45
  },
  {
    "chain": "GRHRRIRYVKTS",
    "target": "Saccharomyces cerevisiae",
    "protein stability index": 0.183
  },
  {
    "chain": "FCIYLCLSTSIT",
    "target": "Saccharomyces cerevisiae",
    "protein stability index": 0.129
  },
  {
    "chain": "CHPIPLARLAPT",
    "target": "Saccharomyces cerevisiae",
    "protein stability index": 0.666
  },
  {
    "chain": "CLEHLVYCRLAS",
    "target": "Saccharomyces cerevisiae",
    "protein stability index": 0.0694
  }
]
